These data points were gathered from the supplement of paper PMC4466140.

Target: ScBzz1-D1
Experiment: SPOT peptide array binding signal intensity (averaged, normalized) (arbitrary units (background-subtracted, floor 0; scale differs between SH3 domains)); higher = stronger binding of the SH3 domain to the peptide
OBSERVABLE: SPOT peptide array binding signal intensity

BINDER	RESULT
NMLKKKPLKKPLKRF	10
QRIRKIPGIPLMSVG	2
RRASLFPRDPKRLRP	30.5
AVPPPPPPPPLPESL	13
DHPKGPPPPPPPDEK	3400
EQEEIAPSLPSRNSI	7
PPIPIVPSSPAPPLP	≤ 0
